Ref: ChEMBL document CHEMBL5316357

- method.description: Half life in female Wistar Han rat at 10 mg/kg,po by LC-MS/MS analysis
- Type: ADME, organism-based
- test.settings: in vivo
reported.metric: half-life (h)

1) CCOC(=O)C1=C(CN2CCN3C(=O)N(CC(C)(C)C(=O)O)C[C@@H]3C2)NC(c2nccs2)=N[C@H]1c1cccc(F)c1C 1.53

---

- method.description: Cmax in female Wistar Han rat at 10 mg/kg,po by LC-MS/MS analysis
- Format: ADME, organism-based
- Parameters: dose 10 mg/kg, route po
- test.settings: in vivo
reported.metric: Cmax (ng/mL)

molecule	reported.metric	recorded.value
CCOC(=O)C1=C(CN2CCN3C(=O)N(CC(C)(C)C(=O)O)C[C@@H]3C2)NC(c2nccs2)=N[C@H]1c1cccc(F)c1C [LINVENCORVIR]	Cmax	683

---

- method.description: AUClast in female Wistar Han rat at 3 mg/kg,po by LC-MS/MS analysis
- Type: ADME, organism-based
- Design: dose 3 mg/kg, route po
- test.settings: in vivo

molecule	AUC(0-t) [ng·h/mL]
CCOC(=O)C1=C(CN2CCN3C(=O)N(CC(C)(C)C(=O)O)C[C@@H]3C2)NC(c2nccs2)=N[C@H]1c1cccc(F)c1C [LINVENCORVIR]	220

---

Listed next: entries and their corresponding Vd.
- method.description: Volume of distribution at steady state in rat plasma at 1 mg/kg,iv
- Type: ADME, organism-based
- test.settings: read-out: Vdss
reported.metric: Vd (L/kg)

1. CCOC(=O)C1=C(CN2C[C@H]3CN(C(C)(C)C)C(=O)N3C[C@@H]2C(=O)O)NC(c2nccs2)=N[C@H]1c1ccc(F)cc1Cl 5.4
2. CCOC(=O)C1=C(CN2CCN3C(=O)N(CC(C)(C)C(=O)O)C[C@@H]3C2)NC(c2nccs2)=N[C@H]1c1cccc(F)c1Cl 4.8

---

- method.description: Oral bioavailability in female Wistar Han rat at 10 mg/kg by LC-MS/MS analysis
- Format: ADME, organism-based
- test.settings: in vivo
reported.metric: bioavailability (%)

compound	recorded.value
CCOC(=O)C1=C(CN2CCN3C(=O)N(CC(C)(C)C(=O)O)C[C@@H]3C2)NC(c2nccs2)=N[C@H]1c1cccc(F)c1C [LINVENCORVIR]	36.4

---

- method.description: Cmax in female minipig at 30 mg/kg,po by LC-MS/MS analysis
- Format: ADME, organism-based, Sus scrofa domesticus
- Parameters: dose 30 mg/kg, route po
- test.settings: pig, in vivo
reported.metric: Cmax (ng/mL)

1. CCOC(=O)C1=C(CN2CCN3C(=O)N(CC(C)(C)C(=O)O)C[C@@H]3C2)NC(c2nccs2)=N[C@H]1c1cccc(F)c1C 429

---

- method.description: Cmax in male minipig at 30 mg/kg,po by LC-MS/MS analysis
- Type: ADME, organism-based, Sus scrofa domesticus
- Design: dose 30 mg/kg, route po
- test.settings: pig, in vivo
reported.metric: Cmax

1. CCOC(=O)C1=C(CN2CCN3C(=O)N(CC(C)(C)C(=O)O)C[C@@H]3C2)NC(c2nccs2)=N[C@H]1c1cccc(F)c1C 768 ng/mL

---

- method.description: Tmax in female cynomolgus monkey at 3 mg/kg,po by LC-MS/MS analysis
- Assay type: ADME, organism-based, Macaca fascicularis
- test.settings: in vivo
reported.metric: Tmax (min)

1. CCOC(=O)C1=C(CN2CCN3C(=O)N(CC(C)(C)C(=O)O)C[C@@H]3C2)NC(c2nccs2)=N[C@H]1c1cccc(F)c1C 15

---

- method.description: Tmax in male cynomolgus monkey at 3 mg/kg,po by LC-MS/MS analysis
- Format: ADME, organism-based, Macaca fascicularis
- test.settings: in vivo
reported.metric: Tmax (min)

compound	recorded.value
CCOC(=O)C1=C(CN2CCN3C(=O)N(CC(C)(C)C(=O)O)C[C@@H]3C2)NC(c2nccs2)=N[C@H]1c1cccc(F)c1C [LINVENCORVIR]	15

---

- method.description: AUClast in female minipig at 30 mg/kg,po by LC-MS/MS analysis
- Type: ADME, organism-based, Sus scrofa domesticus
- Design: dose 30 mg/kg, route po
- test.settings: pig, in vivo
reported.metric: AUC(0-t)

1. CCOC(=O)C1=C(CN2CCN3C(=O)N(CC(C)(C)C(=O)O)C[C@@H]3C2)NC(c2nccs2)=N[C@H]1c1cccc(F)c1C 2550 ng·h/mL

---

- method.description: Tmax in female minipig at 30 mg/kg,po by LC-MS/MS analysis
- Assay type: ADME, organism-based, Sus scrofa domesticus
- test.settings: pig, in vivo

compound	measure.unit	Tmax
CCOC(=O)C1=C(CN2CCN3C(=O)N(CC(C)(C)C(=O)O)C[C@@H]3C2)NC(c2nccs2)=N[C@H]1c1cccc(F)c1C [LINVENCORVIR]	h	2

---

- method.description: AUClast in male minipig at 3 mg/kg,po by LC-MS/MS analysis
- Type: ADME, organism-based, Sus scrofa domesticus
- Design: dose 3 mg/kg, route po
- test.settings: pig, in vivo
reported.metric: AUC(0-t)

1) CCOC(=O)C1=C(CN2CCN3C(=O)N(CC(C)(C)C(=O)O)C[C@@H]3C2)NC(c2nccs2)=N[C@H]1c1cccc(F)c1C 228 ng·h/mL

---

- method.description: AUClast in female cynomolgus monkey at 10 mg/kg,po by LC-MS/MS analysis
- Format: ADME, organism-based, Macaca fascicularis
- Parameters: dose 10 mg/kg, route po
- test.settings: in vivo

compound	measure.unit	AUC(0-t)
CCOC(=O)C1=C(CN2CCN3C(=O)N(CC(C)(C)C(=O)O)C[C@@H]3C2)NC(c2nccs2)=N[C@H]1c1cccc(F)c1C [LINVENCORVIR]	ng·h/mL	1060

---

- method.description: AUClast in male minipig at 30 mg/kg,po by LC-MS/MS analysis
- Format: ADME, organism-based, Sus scrofa domesticus
- Set-up: dose 30 mg/kg, route po
- test.settings: pig, in vivo
reported.metric: AUC(0-t) (ng·h/mL)

1. CCOC(=O)C1=C(CN2CCN3C(=O)N(CC(C)(C)C(=O)O)C[C@@H]3C2)NC(c2nccs2)=N[C@H]1c1cccc(F)c1C 4150

---

- method.description: AUC (0-infinity) in mouse plasma at 3 mg/kg,po
- Assay type: ADME, organism-based
- Parameters: dose 3 mg/kg, route po
- test.settings: in vivo

compound	measure.unit	AUC
CCOC(=O)C1=C(CN2CCN3C(=O)N(CC(C)(C)C(=O)O)C[C@@H]3C2)NC(c2nccs2)=N[C@H]1c1ccc(F)cc1Cl	ng·h/mL	38
CCOC(=O)C1=C(CN2C[C@H]3CN(C(C)(C)C)C(=O)N3C[C@@H]2C(=O)O)NC(c2nccs2)=N[C@H]1c1ccc(F)cc1Cl	ng·h/mL	0.4
CCOC(=O)C1=C(CN2CCN3C(=O)N(CC(C)(C)C(=O)O)C[C@@H]3C2)NC(c2nccs2)=N[C@H]1c1cccc(F)c1Cl	ng·h/mL	154
CCOC(=O)C1=C(CN2CCN3C(=O)N(CC(C)(C)C(=O)O)C[C@@H]3C2)NC(c2nccs2)=N[C@H]1c1cccc(F)c1C [LINVENCORVIR]	ng·h/mL	275

---

- method.description: Half life in male minipig at 10 mg/kg,po by LC-MS/MS analysis
- Type: ADME, organism-based, Sus scrofa domesticus
- test.settings: pig, in vivo
reported.metric: half-life

1) CCOC(=O)C1=C(CN2CCN3C(=O)N(CC(C)(C)C(=O)O)C[C@@H]3C2)NC(c2nccs2)=N[C@H]1c1cccc(F)c1C 7.28 h

---

- method.description: AUClast in female Wistar Han rat at 10 mg/kg,po by LC-MS/MS analysis
- Format: ADME, organism-based
- Parameters: dose 10 mg/kg, route po
- test.settings: in vivo
reported.metric: AUC(0-t) (ng·h/mL)

1) CCOC(=O)C1=C(CN2CCN3C(=O)N(CC(C)(C)C(=O)O)C[C@@H]3C2)NC(c2nccs2)=N[C@H]1c1cccc(F)c1C 1970

---

- method.description: AUClast in male Wistar Han rat at 3 mg/kg,po by LC-MS/MS analysis
- Type: ADME, organism-based
- Design: dose 3 mg/kg, route po
- test.settings: in vivo

compound	AUC(0-t), ng·h/mL
CCOC(=O)C1=C(CN2CCN3C(=O)N(CC(C)(C)C(=O)O)C[C@@H]3C2)NC(c2nccs2)=N[C@H]1c1cccc(F)c1C [LINVENCORVIR]	209

---

- method.description: Clearance in minipig at 2 mg/kg,iv by LC-MS/MS analysis
- Assay type: ADME, organism-based, Sus scrofa domesticus
- test.settings: pig, in vivo

molecule	clearance, mL/min/kg
CCOC(=O)C1=C(CN2CCN3C(=O)N(CC(C)(C)C(=O)O)C[C@@H]3C2)NC(c2nccs2)=N[C@H]1c1cccc(F)c1C [LINVENCORVIR]	24.1
